# protocol-summary: Quantitative High-Throughput drug screen in 47 multiple myeloma cell lines against the NCATS MIPE library collection: PE2_PLB cell viability assay (AID 1919869); further: nearly all actives have a fitted effect of over 35% in size; further: potency means the concentration at half of the fitted maximal effect
# condition-info: PE2_PLB myeloma cells viability, ATP luminescence, 48 h; series mostly up to 45.8 µM
Inconclusive results are not listed. The source made the active and inactive calls. The call rests on the fitted dose curve; in most records, active means well fitted cell-killing curve with a large enough effect; inconclusive means small, poorly fitted or top-dose-only effect, or effect the other way; inactive means no such curve, though single readings can be large or run the other way.
experimental-endpoint: Potency

compound	Potency
N#CC(=C1Nc2ccccc2S1)c1ccnc(OCc2ccc(CN3CCOCC3)cc2)n1	5.26 µM (active)
C[C@@H]1O[C@@H](O[C@H]2CC[C@@]3(C)[C@H](CC[C@@H]4[C@H]3C[C@@H](O)[C@]3(C)[C@@H](C5=CC(=O)OC5)CC[C@]43O)C2)C[C@H](O)[C@@H]1O[C@H]1C[C@H](O)[C@H](O[C@H]2C[C@H](O)[C@@H](O)[C@@H](C)O2)[C@H](C)O1 (stereo in doubt)	0.215 µM (active)
COc1c(C)c2c(c(O)c1CC=C(C)CCC(=O)OCCN1CCOCC1)C(=O)OC2	4.18 µM (active)
O=S(=O)(O)c1ccc2cc(N=Nc3cc(S(=O)(=O)O)c4cccnc4c3O)ccc2c1	3.32 µM (active)
c1ccc(-c2oc3ncnc(NC[C@@H]4CCCO4)c3c2-c2ccccc2)cc1	16.6 µM (active)
CC(C)CN(C[C@@H](O)[C@H](Cc1ccccc1)NC(=O)O[C@H]1CO[C@H]2OCC[C@H]21)S(=O)(=O)c1ccc(N)cc1	inactive
Nc1nc(Cl)nc2c1ncn2[C@@H]1O[C@H](CO)[C@@H](O)[C@H]1F	0.418 µM (active)
CCCCC(F)(F)[C@@]1(O)CC[C@H]2[C@H](CC(=O)[C@@H]2CCCCCCC(=O)O)O1	inactive

Query: For Cc1ccc(NC(=O)c2ccc(CN3CCN(C)CC3)cc2)cc1Nc1nc(-c2cccnc2)cs1 , what is its reported Potency?
Reply: 11.8 µM (active)

Query: For COc1ccc2ccc(=O)oc2c1CC=C(C)C , what is its reported Potency?
Reply: inactive

Query: For C[C@]12CCC3=C4CCC(=O)C=C4CC[C@@H]3[C@H]1CC[C@@]2(O)CC#N , what is its reported Potency?
Reply: inactive

Query: For Nc1ncnc2c1ncn2[C@@H]1O[C@H](CO)[C@@H](O)[C@@H]1O , what is its reported Potency?
Reply: 14.8 µM (active)

Query: For CCn1c(-c2nonc2N)nc2cncc(CNC3CCNCC3)c21 , what is its reported Potency?
Reply: 5.9 µM (active)

Query: For N#Cc1c(N(CC(=O)O)CC(=O)O)sc(C(=O)O)c1CC(=O)O , what is its reported Potency?
Reply: 14.8 µM (active)

Query: For CCCCCCCCCCCCCCCC(=O)O[C@H]1[C@@H](O)[C@@H](O)[C@@H]([C@H](NC(=O)[C@@H]2C[C@@H](CCC)CN2C)[C@H](C)Cl)O[C@@H]1SC , what is its reported Potency?
Reply: 10.5 µM (active)

Query: For CCN(CC)CCCCNc1nc2cc(Cl)c(Cl)cc2nc1-c1ccc(-c2cccs2)s1 , what is its reported Potency?
Reply: 9.35 µM (active)

Query: For COc1ccc(-c2cc3nccn3c(Nc3ncccc3C(N)=O)n2)cc1OC , what is its reported Potency?
Reply: 0.59 µM (active)

Query: For CC(C)(F)C[C@H](N[C@@H](c1ccc(-c2ccc(S(C)(=O)=O)cc2)cc1)C(F)(F)F)C(=O)NC1(C#N)CC1 , what is its reported Potency?
Reply: 6.62 µM (active)

Query: For O=C(O)C1=CC(O)C(O)[C@H](O)C1 (stereo partly specified) , what is its reported Potency?
Reply: inactive

Query: For CN1CC(=O)N2C(Cc3c([nH]c4ccccc34)[C@H]2c2ccc3c(c2)OCO3)C1=O (stereo partly specified) , what is its reported Potency?
Reply: inactive

Query: For CN[C@@H](C)[C@H]1[C@H](O)C[C@@]2(C)[C@@H]3CC[C@H]4C(C)(C)[C@@H](NC)CC[C@@]45C[C@@]35CC[C@]12C , what is its reported Potency?
Reply: inactive

###

# protocol-summary: Quantitative High-Throughput drug screen in 47 multiple myeloma cell lines against the NCATS MIPE library collection: KMM1_JCRB cell viability assay (AID 1918960); further: nearly all actives have a fitted effect of over 30% in size
# condition-info: KMM1 myeloma viability, CellTiter-Glo ATP luminescence, 48 h; series mostly up to 45.8 µM
Records with an inconclusive call do not appear. Active and inactive are the calls of the source. The call rests on the fitted dose curve; in most records, active means well fitted cell-killing curve with a large enough effect; inconclusive means small, poorly fitted or top-dose-only effect, or effect the other way; inactive means no such curve, though single readings can be large or run the other way.
# output must be one of active, inactive

Query: Answer briefly: the call reported for CN1c2ccccc2C(=O)N2CCc3c([nH]c4ccccc34)C21 (stereo not drawn) in this assay.
Reply: inactive

Query: Answer briefly: the call reported for CCC[C@H](Nc1nc(-c2ccc(NC(=O)NCC)c(OC)c2)ncc1C)c1cccnc1 in this assay.
Reply: active

Query: Answer briefly: the call reported for CN(C)CCOc1ccc(C(=C(CCCl)c2ccccc2)c2ccccc2)cc1 in this assay.
Reply: inactive

###

# protocol-summary: Quantitative High-Throughput drug screen in 47 multiple myeloma cell lines against the NCATS MIPE library collection: RPMI8226_ATCC cell viability assay (AID 1919871); further: nearly all actives have a fitted effect of over 30% in size
# condition-info: RPMI8226 myeloma viability, CellTiter-Glo ATP luminescence, 48 h; series mostly up to 45.8 µM
Inconclusive results are not listed. Calls of active or inactive are those of the source. The call rests on the fitted dose curve; in most records, active means well fitted cell-killing curve with a large enough effect; inconclusive means small, poorly fitted or top-dose-only effect, or effect the other way; inactive means no such curve, though single readings can be large or run the other way.
# output must be one of active, inactive

Query: Answer briefly: the call reported for C[C@@H](N)c1ccc(C(=O)Nc2ccnc3[nH]ccc23)cc1 in this assay.
Reply: inactive

Query: Answer briefly: the call reported for CC[C@H](C)C(=O)O[C@H]1C[C@H](O)C=C2C=C[C@H](C)[C@H](CC[C@@H](O)C[C@@H](O)CC(=O)O)[C@H]21 in this assay.
Reply: inactive

Query: Answer briefly: the call reported for COC(=O)Nc1ccc(-c2nc(N3CCOCC3)c3cnn(C4CCN(C(=O)OC)CC4)c3n2)cc1 in this assay.
Reply: active

Query: Answer briefly: the call reported for COc1ccc(Cn2ccc3ccc(C(=O)NO)cc32)cc1 in this assay.
Reply: inactive

Query: Answer briefly: the call reported for COc1ccc2cc1Oc1ccc(cc1)C[C@H]1c3cc(c(OC)cc3CCN1C)Oc1c(OC)c(OC)cc3c1[C@H](C2)N(C)CC3 in this assay.
Reply: active

Query: Answer briefly: the call reported for N#CC1(c2cccc(C(=O)Nc3cc(Oc4ccc5nc(NC(=O)C6CC6)sc5n4)ccc3F)c2Cl)CC1 in this assay.
Reply: active

Query: Answer briefly: the call reported for COc1ccc(-c2cc(=O)c3c(O)cc(O[C@@H]4O[C@H](CO[C@@H]5O[C@@H](C)[C@H](O)[C@@H](O)[C@@H]5O)[C@@H](O)[C@H](O)[C@@H]4O)cc3o2)cc1O in this assay.
Reply: inactive

Query: Answer briefly: the call reported for O=C(Nc1ncc(SCCN2CCCC2)s1)[C@]1(c2ccc(S(=O)(=O)C3CC3)cc2)C[C@@H]1C1CCCCC1 in this assay.
Reply: active

###

# protocol-summary: Quantitative High-Throughput drug screen in 47 multiple myeloma cell lines against the NCATS MIPE library collection: MM1R_ATCC cell viability assay (AID 1918981); further: nearly all actives have a fitted effect of over 35% in size
# condition-info: MM1R multiple myeloma cells, CellTiter-Glo viability, 48 h; series mostly up to 45.8 µM
# Text: PI: Beverly A. Mock Ph.D. Laboratory of Cancer Biology and Genetics, Center for Cancer Research, National Cancer Institute, National Institute of Health, Bethesda, Maryland […] 5; Detector; 425V; Luminescence; Viewlux PerkinElmer. […] 1. […] Briefly, the corresponding myeloma cell lines were screened in 1,536-well plates with 500 cells, 5-uL per well for inhibition of cell viability (assessed by measuring ATP levels with CellTiterGlo). […]
Records with an inconclusive call do not appear. Calls of active or inactive are those of the source. Calls come from the whole dose curve; as a rule, active = well fitted cell-killing curve with a large enough effect; inconclusive = small, poorly fitted or top-dose-only effect, or effect the other way; inactive = no such curve, though single readings can be large or run the other way.
# output must be one of True for active, False for inactive

Query: Answer briefly: the call reported for COc1cc2nc(-c3cc(F)ccc3O)nc(N[C@@H]3CNC[C@@H]3C(C)(C)O)c2cc1OC in this assay.
Reply: True

Query: Answer briefly: the call reported for COc1ccc(Cn2ccc3ccc(C(=O)NO)cc32)cc1 in this assay.
Reply: False

Query: Answer briefly: the call reported for CCn1c(-c2nonc2N)nc2cncc(CNC3CCNCC3)c21 in this assay.
Reply: True

Query: Answer briefly: the call reported for CC[C@H]1OC(=O)[C@H](C)[C@@H](O[C@H]2C[C@@](C)(OC)[C@@H](O)[C@H](C)O2)[C@H](C)[C@@H](O[C@@H]2O[C@H](C)C[C@H](N(C)C)[C@H]2O)[C@](C)(O)C[C@H](C)C(=NOCOCCOC)[C@H](C)[C@@H](O)[C@]1(C)O in this assay.
Reply: False

Query: Answer briefly: the call reported for Clc1ccc(COC(Cn2ccnc2)c2ccc(Cl)cc2Cl)c(Cl)c1 (stereo not drawn) in this assay.
Reply: True

Query: Answer briefly: the call reported for C[C@@H]1[C@H](O)[C@@H](C)C=CC=CC=CC=CC=CC=CC=C[C@H](O[C@@H]2O[C@H](C)[C@H](O)[C@H](N)[C@@H]2O)C[C@@H]2O[C@](O)(C[C@@H](O)C[C@@H](O)[C@H](O)CC[C@@H](O)C[C@@H](O)CC(=O)O[C@H]1C)C[C@H](O)[C@@H]2C(=O)O in this assay.
Reply: True

Query: Answer briefly: the call reported for CN1c2ccccc2C(=O)N2CCc3c([nH]c4ccccc34)C21 (stereo not drawn) in this assay.
Reply: False

Query: Answer briefly: the call reported for N#CC(c1ccc(Cl)cc1)c1c(Cl)cc(-n2ncc(=O)[nH]c2=O)cc1Cl (stereo not drawn) in this assay.
Reply: True

Query: Answer briefly: the call reported for CCN(CC)CCCCNc1nc2cc(Cl)c(Cl)cc2nc1-c1ccc(-c2cccs2)s1 in this assay.
Reply: True

Query: Answer briefly: the call reported for O=C(c1ccc(C(=O)N2CCC(N3CCCC3)CC2)c(Nc2ccccc2)c1)N1CCC(N2CCCC2)CC1 in this assay.
Reply: False

Query: Answer briefly: the call reported for CN1C(=O)C(Cc2c[nH]c3ccccc23)NC1=S (stereo not drawn) in this assay.
Reply: False

Query: Answer briefly: the call reported for COc1nccc(-c2c(-c3ccc(F)cc3)ncn2C2CCC(O)CC2)n1 (stereo not drawn) in this assay.
Reply: True

Query: Answer briefly: the call reported for CN1CCN(c2cccc(Nc3nc4c(-c5ccc(S(C)(=O)=O)cc5)cccn4n3)c2)CC1 in this assay.
Reply: True

Query: Answer briefly: the call reported for O=C(O)c1nc(=O)[nH]c(=O)[nH]1 in this assay.
Reply: False

Query: Answer briefly: the call reported for C[C@@H]1C[C@H]2[C@@H]3CCC4=CC(=O)C=C[C@]4(C)[C@@]3(F)[C@@H](O)C[C@]2(C)[C@@]1(O)C(=O)CO in this assay.
Reply: False

Query: Answer briefly: the call reported for CC(C)(CO)[C@@H](O)C(=O)NCCC(=O)O in this assay.
Reply: False

Query: Answer briefly: the call reported for CC(C)(C)c1nc(-c2cccc(NS(=O)(=O)c3c(F)cccc3F)c2F)c(-c2ccnc(N)n2)s1 in this assay.
Reply: True

Query: Answer briefly: the call reported for CN[C@@H]1CN(c2ccc3c(=O)c(C(=O)O)cn(-c4nccs4)c3n2)C[C@@H]1OC in this assay.
Reply: True

Query: Answer briefly: the call reported for CC[C@H](NC(=O)[C@H](C)NC)C(=O)N1C[C@@H](O)C[C@H]1Cc1c(-c2[nH]c3cc(F)ccc3c2C[C@H]2C[C@H](O)CN2C(=O)[C@H](CC)NC(=O)[C@H](C)NC)[nH]c2cc(F)ccc12 in this assay.
Reply: True

Query: Answer briefly: the call reported for O=c1[nH]c(=O)n([C@H]2C[C@@H](O)[C@@H](CO)O2)cc1I in this assay.
Reply: True

Query: Answer briefly: the call reported for COc1ccc(-c2oc3c(CC=C(C)C)c(O)cc(O)c3c(=O)c2O)cc1 in this assay.
Reply: True

Query: Answer briefly: the call reported for CC(=O)N1CCN(c2ccc(OCc3nn(C)c(C)c3-c3cccc4c(CCCOc5cc(C)c(Cl)c(C)c5)c(C(=O)O)n(Cc5cccnc5)c34)cc2)CC1 in this assay.
Reply: True

Query: Answer briefly: the call reported for O=C(O)CCNc1cc(N2CCc3ccccc3CC2)nc(-c2ccccn2)n1 in this assay.
Reply: True

Query: Answer briefly: the call reported for C=C[C@@H]1CN2CCC1C[C@@H]2C(O)c1ccnc2ccc(OC)cc12 (stereo partly drawn) in this assay.
Reply: True

Query: Answer briefly: the call reported for CC1(C)CC(=O)c2c(C(F)(F)F)nn(-c3ccc(C(N)=O)c(NC4CCC(O)CC4)c3)c2C1 (stereo not drawn) in this assay.
Reply: True

Query: Answer briefly: the call reported for O=C1CCCC(=O)C1C(=O)c1ccc(C(F)(F)F)cc1[N+](=O)[O-] in this assay.
Reply: False

Query: Answer briefly: the call reported for C=CCc1cccc(C=NNC(=O)CN2CCN(Cc3ccccc3)CC2)c1O in this assay.
Reply: True

Query: Answer briefly: the call reported for COc1cc([C@@H]2c3cc4c(cc3[C@@H](O[C@@H]3O[C@@H]5CO[C@@H](C)O[C@@H]5[C@H](O)[C@@H]3O)[C@H]3COC(=O)[C@H]23)OCO4)cc(OC)c1O in this assay.
Reply: True
